Value source: PubChem BioAssay AID2060899

Here, each record is paired with measured viability, T/C data.
System: 565726-208-R1-J5-PDC complex spheroids, growth inhibition;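 also: spheroids exposed to compounds for seven days before readout; 100% = DMSO vehicle control viability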
Experiment: Anticancer human tumor 565726-208-R1-J5-PDC patient-derived pancreatic adenocarcinoma cell line growth inhibition [RAS]
Details: second compound 0.316 µM; first compound 0.316 µM; stronger effect = lower value
From the text: RAS pathway inhibitors in Combinations in Complex Spheroids A high-throughput screen of multi-cell type tumor spheroids was designed to identify active combinations of RAS pathway inhibitors and targeted small molecules. Complex spheroids include a stromal component modeled by human endothelial cells (HUVEC) and fibroblasts modeled by human mesenchymal stem cells (MSCs). […] Compounds. […] If the clinical Cmax for an agent had not been determined, the highest concentration tested was 10 microM. […]
measurement kind: viability, T/C (%)

1. NC1c2ccccc2OC12CCN(c1cnc3c(N4CCCc5ncccc54)n[nH]c3n1)CC2 (centres undefined) + C#Cc1c(F)ccc2cc(O)cc(-c3ncc4c(N5CC6CCC(C5)N6)nc(OCC56CCCN5CC(F)C6)nc4c3F)c12 ... 62
2. CC(=O)OC12COC1CC(O)C1(C)C(=O)C(O)C3=C(C)C(OC(=O)C(O)C(NC(=O)OC(C)(C)C)c4ccccc4)CC(O)(C(OC(=O)c4ccccc4)C21)C3(C)C (centres undefined) + C#Cc1c(F)ccc2cc(O)cc(-c3ncc4c(N5CC6CCC(C5)N6)nc(OCC56CCCN5CC(F)C6)nc4c3F)c12 ... 16.1
3. CC(Nc1ccc2c(c1)OCCn1cc(N3C(=O)OCC3C(F)F)nc1-2)C(N)=O (centres undefined) + C=CC(=O)N1CCN(c2nc(OCC3CCCN3C)nc3c(F)c(-c4nc(N)cc(C)c4C(F)(F)F)c(Cl)cc23)C(C)C1 ... 86.3
4. C=CC(=O)N1CCN(c2nc(OCC3CCCN3C)nc3c(F)c(-c4nc(N)cc(C)c4C(F)(F)F)c(Cl)cc23)C(C)C1 (centres undefined) + C#Cc1c(F)ccc2cc(O)cc(-c3ncc4c(N5CC6CCC(C5)N6)nc(OCC56CCCN5CC(F)C6)nc4c3F)c12 ... 87.7
